- assayed_target: ATM (Homo sapiens (Human))
- Sequence (Q13315 whole entry, looked up): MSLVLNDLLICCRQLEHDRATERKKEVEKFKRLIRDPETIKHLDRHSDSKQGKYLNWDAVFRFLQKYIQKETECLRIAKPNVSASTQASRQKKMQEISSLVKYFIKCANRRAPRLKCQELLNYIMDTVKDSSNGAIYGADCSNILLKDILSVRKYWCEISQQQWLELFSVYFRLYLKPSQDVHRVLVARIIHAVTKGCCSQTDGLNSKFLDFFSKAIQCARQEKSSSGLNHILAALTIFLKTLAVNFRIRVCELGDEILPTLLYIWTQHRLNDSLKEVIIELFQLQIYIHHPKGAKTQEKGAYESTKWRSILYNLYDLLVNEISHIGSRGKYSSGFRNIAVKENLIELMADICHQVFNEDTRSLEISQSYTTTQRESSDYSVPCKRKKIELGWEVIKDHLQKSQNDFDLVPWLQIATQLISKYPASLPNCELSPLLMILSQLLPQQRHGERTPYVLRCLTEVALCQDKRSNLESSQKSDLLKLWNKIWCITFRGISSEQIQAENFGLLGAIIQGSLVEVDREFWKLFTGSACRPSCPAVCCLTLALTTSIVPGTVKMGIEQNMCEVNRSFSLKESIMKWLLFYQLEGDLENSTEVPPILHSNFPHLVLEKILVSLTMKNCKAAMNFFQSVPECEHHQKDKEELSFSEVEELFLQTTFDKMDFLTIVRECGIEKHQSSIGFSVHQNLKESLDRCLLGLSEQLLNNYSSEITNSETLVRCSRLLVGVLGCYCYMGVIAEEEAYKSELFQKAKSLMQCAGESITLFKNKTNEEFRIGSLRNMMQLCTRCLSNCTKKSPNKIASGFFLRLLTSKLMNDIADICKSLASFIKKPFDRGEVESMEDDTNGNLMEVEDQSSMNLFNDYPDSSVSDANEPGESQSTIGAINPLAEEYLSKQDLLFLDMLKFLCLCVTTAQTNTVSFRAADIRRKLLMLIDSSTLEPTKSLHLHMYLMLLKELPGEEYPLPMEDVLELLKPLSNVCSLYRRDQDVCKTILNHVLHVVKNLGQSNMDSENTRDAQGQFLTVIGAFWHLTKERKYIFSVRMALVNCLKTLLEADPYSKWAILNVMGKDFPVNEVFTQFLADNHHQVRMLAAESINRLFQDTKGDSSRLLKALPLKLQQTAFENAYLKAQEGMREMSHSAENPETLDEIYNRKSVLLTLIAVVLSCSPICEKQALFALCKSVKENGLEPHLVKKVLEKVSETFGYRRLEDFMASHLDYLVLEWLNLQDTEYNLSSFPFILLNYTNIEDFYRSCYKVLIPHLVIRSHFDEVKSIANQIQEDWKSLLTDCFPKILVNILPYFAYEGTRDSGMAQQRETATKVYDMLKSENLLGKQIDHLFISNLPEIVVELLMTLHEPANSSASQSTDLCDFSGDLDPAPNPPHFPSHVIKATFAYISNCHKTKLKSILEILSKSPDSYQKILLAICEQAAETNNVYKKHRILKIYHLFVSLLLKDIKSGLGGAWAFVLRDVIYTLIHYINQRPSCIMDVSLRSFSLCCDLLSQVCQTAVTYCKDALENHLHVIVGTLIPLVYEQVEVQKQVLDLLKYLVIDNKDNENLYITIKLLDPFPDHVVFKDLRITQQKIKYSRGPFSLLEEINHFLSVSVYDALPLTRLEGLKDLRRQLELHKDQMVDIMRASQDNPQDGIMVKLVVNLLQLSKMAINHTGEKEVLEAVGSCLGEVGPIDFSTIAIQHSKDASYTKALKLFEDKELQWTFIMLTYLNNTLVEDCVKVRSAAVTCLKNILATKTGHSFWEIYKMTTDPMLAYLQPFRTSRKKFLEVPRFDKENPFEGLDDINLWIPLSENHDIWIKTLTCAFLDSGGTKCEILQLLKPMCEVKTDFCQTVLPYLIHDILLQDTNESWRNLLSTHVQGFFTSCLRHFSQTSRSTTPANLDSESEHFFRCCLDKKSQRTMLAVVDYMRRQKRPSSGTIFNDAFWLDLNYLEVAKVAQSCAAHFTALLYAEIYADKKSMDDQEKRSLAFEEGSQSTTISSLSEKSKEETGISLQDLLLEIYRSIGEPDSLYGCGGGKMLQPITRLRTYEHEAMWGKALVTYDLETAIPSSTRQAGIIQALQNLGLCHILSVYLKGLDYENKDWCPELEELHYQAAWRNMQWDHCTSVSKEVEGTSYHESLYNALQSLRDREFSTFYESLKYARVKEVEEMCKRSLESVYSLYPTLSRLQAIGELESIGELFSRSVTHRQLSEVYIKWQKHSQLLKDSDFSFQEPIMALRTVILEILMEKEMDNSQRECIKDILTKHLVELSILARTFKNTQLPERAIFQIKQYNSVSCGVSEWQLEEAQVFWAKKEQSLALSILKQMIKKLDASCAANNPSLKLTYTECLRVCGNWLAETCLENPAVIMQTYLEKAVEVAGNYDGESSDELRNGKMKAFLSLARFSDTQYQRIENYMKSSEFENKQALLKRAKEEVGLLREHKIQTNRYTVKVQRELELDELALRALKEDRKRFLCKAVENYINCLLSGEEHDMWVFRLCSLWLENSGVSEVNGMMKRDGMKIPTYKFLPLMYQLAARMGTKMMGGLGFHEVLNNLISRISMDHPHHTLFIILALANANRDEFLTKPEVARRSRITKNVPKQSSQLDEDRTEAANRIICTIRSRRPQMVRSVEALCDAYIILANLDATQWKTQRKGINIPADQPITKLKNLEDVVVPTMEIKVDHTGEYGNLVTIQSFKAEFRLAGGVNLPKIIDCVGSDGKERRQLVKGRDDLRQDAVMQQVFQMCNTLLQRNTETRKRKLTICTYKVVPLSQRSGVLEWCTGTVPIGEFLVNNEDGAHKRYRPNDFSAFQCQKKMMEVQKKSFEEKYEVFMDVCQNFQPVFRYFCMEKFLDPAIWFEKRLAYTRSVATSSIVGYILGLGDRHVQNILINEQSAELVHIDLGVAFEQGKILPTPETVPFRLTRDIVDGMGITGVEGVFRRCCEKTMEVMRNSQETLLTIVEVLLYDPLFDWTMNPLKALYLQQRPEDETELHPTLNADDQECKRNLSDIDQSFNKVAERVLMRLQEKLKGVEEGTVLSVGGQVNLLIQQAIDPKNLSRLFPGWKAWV
- assay_comment: biochemical
- Format: biochemical
- condition_info: read-out: ATM IC50
observed_property: IC50 (nM)
Quick note: give the figure in nM, leave out the unit.

// query Return reported IC50; argument: CC(C)n1c(=O)n(C)c2nnc3ccc(-c4ccc(COCCN5CCC(OC(F)(F)F)CC5)nc4)cc3c21
// result 2.2

// query Return reported IC50; argument: CC(C)n1c(=O)n(C)c2nnc3ccc(-c4ccc(COCCN5CCC[C@@H]5C)nc4)cc3c21
// result 68

// query Return reported IC50; argument: CC(C)n1c(=O)n(C)c2nnc3ccc(-c4ccc(COC5CN(C)C5)nc4)cc3c21
// result 134

// query Return reported IC50; argument: CC(C)n1c(=O)n(C)c2nnc3ccc(-c4ccc(COCCN5CCC6(CC6)C5)nc4)cc3c21
// result 14
